system under test: T1, IL-1β (UniProt P01584 117-269)
T1 construct: Antigen of XPA23
assay name: Biacore, Fab periplasmic extract
recorded metric: fold difference in affinity against the original (fold)
# output: bare number, implied unit fold

XPA23 heavy chain Y101V (Fab, V domains shown, Fab, periplasmic extract; also called C5A Y101V) VH: EVQLLESGGGLVQPGGSLRLSCAASGFTFSKYFMFWVRQAPGKGLEWVSVISPSGGMTRYADSVKGRFTISRDNSKNTLYLQMNSLRAEDTAVYYCARVGVGGNSDYWGQGTLVTVSS VL: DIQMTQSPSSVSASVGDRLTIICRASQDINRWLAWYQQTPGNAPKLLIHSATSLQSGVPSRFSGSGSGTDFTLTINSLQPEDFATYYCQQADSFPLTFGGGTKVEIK : 0.09
XPA23 heavy chain F33I (Fab, V domains shown, Fab, periplasmic extract; also called C5A F33I) VH: EVQLLESGGGLVQPGGSLRLSCAASGFTFSKYIMFWVRQAPGKGLEWVSVISPSGGMTRYADSVKGRFTISRDNSKNTLYLQMNSLRAEDTAVYYCARVGYGGNSDYWGQGTLVTVSS VL: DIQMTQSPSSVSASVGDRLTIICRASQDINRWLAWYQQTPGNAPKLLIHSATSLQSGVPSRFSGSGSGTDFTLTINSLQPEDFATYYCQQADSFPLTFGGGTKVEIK : 0.75

-- ask Identify fold difference in affinity against the original associated with the binder XPA23 heavy chain G103A (Fab, V domains shown, Fab, periplasmic extract; also called C5A G103A) VH: EVQLLESGGGLVQPGGSLRLSCAASGFTFSKYFMFWVRQAPGKGLEWVSVISPSGGMTRYADSVKGRFTISRDNSKNTLYLQMNSLRAEDTAVYYCARVGYGANSDYWGQGTLVTVSS VL: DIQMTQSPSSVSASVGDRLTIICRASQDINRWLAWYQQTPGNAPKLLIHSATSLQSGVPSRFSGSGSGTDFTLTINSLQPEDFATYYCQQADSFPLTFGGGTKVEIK
-- reply 0.03
